Entry source: patent US7423044B2

Target: PTP-1B (Homo sapiens, UniProt P18031)
Sequence (P18031 whole entry): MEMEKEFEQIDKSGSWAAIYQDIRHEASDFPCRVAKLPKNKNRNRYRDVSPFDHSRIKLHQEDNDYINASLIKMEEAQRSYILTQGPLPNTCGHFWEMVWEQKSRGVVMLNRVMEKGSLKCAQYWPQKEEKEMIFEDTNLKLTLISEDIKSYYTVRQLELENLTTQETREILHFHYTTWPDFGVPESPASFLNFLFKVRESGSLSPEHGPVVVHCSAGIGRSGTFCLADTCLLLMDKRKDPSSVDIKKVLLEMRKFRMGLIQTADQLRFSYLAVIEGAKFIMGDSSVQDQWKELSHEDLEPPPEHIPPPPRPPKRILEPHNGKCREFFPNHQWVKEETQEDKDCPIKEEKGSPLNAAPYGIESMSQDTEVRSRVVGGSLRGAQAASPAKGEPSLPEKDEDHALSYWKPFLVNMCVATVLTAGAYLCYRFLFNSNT
Assay: PTPase inhibition assay (DIFMUP fluorescence kinetic assay)
Type: biochemical
Conditions: inhibitor at 40 μM; from average velocity (Va); 20 μM DIFMUP, 1 nM enzyme
inhibition at 40 µM: recorded values
QUANTITY_NAME: inhibition at 40 µM (%)

> print(dat)
                                   compound  unit.text  readout.number
1  CC(C)c1cc(OCc2ccc(C(=O)O)cc2)nc(-c2cccc([N+](=O)[O-])c2)n1 [Example 21]          %             101
2  CC(C)c1cc(OCc2ccc(F)cc2)nc(-c2cccc([N+](=O)[O-])c2)n1 [Example 10]          %              56
3  CC(C)c1cc(OCc2ccc(C#N)cc2)nc(-c2cc(Cl)cc(Cl)c2)n1 [Example 11]          %              34
4  O=C(O)c1ccc(COc2nc(-c3cc(Cl)cc(Cl)c3)nc3c2CN(Cc2ccccc2)CC3)cc1 [Example 20]          %             100
5  O=C(O)c1ccc(COc2cc(-c3ccccc3)nc(-c3ccncc3)n2)cc1 [Example 6]          %              56
6  N#Cc1ccc(COc2nc(-c3cc(Cl)cc(Cl)c3)nc3c2CN(Cc2ccccc2)CC3)cc1 [Example 12]          %              54
7  Fc1ccc(COc2nc(-c3ccccc3)nc3c2CCC3)cc1 [Example 4]          %              12
